Test system: Alopecurus myosuroides (ALOMY)
ASSAY: Post-emergence herbicidal activity
Assay type: in vivo
RUN CONDITIONS: post-emergence application, 1000 g/Ha, evaluated after 13 days, scale 0-5
We begin with a simple list: items and their reported Control of weed species, ALOMY (damage score).
Reply briefly: the number, and no unit.

Here are 3 compounds together with their reported answers.
- SMILES DATA: "Cc1nc(-c2cncc(F)c2)sc1N(C)C(=O)OC(C)(C)C"
  NUMERIC RESULT: 1
- SMILES DATA: "Cc1nc(-c2cccnc2)sc1N(C)C(=O)OC(C)(C)C"
  NUMERIC RESULT: 0
- SMILES DATA: "Cc1nc(-c2cncc(N(C)C)c2)sc1N(C)C(=O)OC(C)(C)C"
  NUMERIC RESULT: 1

Req: # Control of weed species, ALOMY (damage score) lookup, item Cc1nc(-c2cncc(OC(F)F)c2)sc1N(C)C(=O)OC(C)(C)C
Resp: 3

Req: Next up: Cc1nc(-c2cccnc2)sc1N(C)C(=O)SC(C)(C)C
Resp: 0

---

System: Oryza sativa (ORYSA)
ASSAY: Pre-emergence herbicidal activity
Assay type: in vivo
RUN CONDITIONS: pre-emergence application, 1000 g/Ha, evaluated after 13 days, scale 0-5
Description: B1 Pre-Emergence Herbicidal Activity Seeds of a variety of test species were sown in standard soil in pots: Triticum aestivium (TRZAW), Oryza sativa (ORYSA), Avena fatua (AVEFA), Alopecurus myosuroides (ALOMY), Echinochloa crus-galli (ECHCG), Lolium perenne (LOLPE), Zea Mays (ZEAMX), Abutilon theophrasti (ABUTH), Amaranthus retroflexus (AMARE) and Setaria faberi (SETFA). […] After 13 days, the test was evaluated (5=total damage to plant; 0=no damage to plant).
MEASUREMENT NAME: Control of weed species, ORYSA (damage score)

Reference set (6 entries):
- SMILES DATA: "Cc1nc(-c2cccnc2)sc1N(C)C(=O)OC(C)(C)C"
  SUBJECT OF TEST: "Oryza sativa (ORYSA)"
  RESULT: 2
- SMILES DATA: "CCOC(=O)N(C)c1sc(-c2cccnc2)nc1C"
  SUBJECT OF TEST: "Oryza sativa (ORYSA)"
  RESULT: 0
- SMILES DATA: "CSc1cncc(-c2nc(C)c(N(C)C(=O)OC(C)(C)C)s2)c1"
  SUBJECT OF TEST: "Oryza sativa (ORYSA)"
  RESULT: 0
- SMILES DATA: "CN(C(=O)OC(C)(C)C)c1sc(-c2cncnc2)nc1C(F)(F)F"
  SUBJECT OF TEST: "Oryza sativa (ORYSA)"
  RESULT: 1
- SMILES DATA: "CN(C(=O)OC(C)(C)C)c1sc(-c2cncc(Cl)c2)nc1C(F)(F)F"
  SUBJECT OF TEST: "Oryza sativa (ORYSA)"
  RESULT: 0
- SMILES DATA: "CN(C(=O)OC(C)(C)C)c1sc(-c2cccnc2)nc1Br"
  SUBJECT OF TEST: "Oryza sativa (ORYSA)"
  RESULT: 1

Req: Quick check: Control of weed species, ORYSA (damage score) of Cc1nc(-c2cncnc2)sc1N(C)C(=O)OC(C)(C)C ?
Resp: 1

Req: // query: CN(C(=O)OC(C)(C)C)c1sc(-c2cccnc2)nc1C(F)(F)F
Resp: 1

Req: Subsequent entry: Cc1nc(-c2cncc(F)c2)sc1N1CCOC1=O
Resp: 3

Req: For Cc1nc(-c2cc(F)c[n+]([O-])c2)sc1N(C)C(=O)OC(C)(C)C then?
Resp: 1

Req: Similarly, Cc1nc(-c2cncc(N(C)C)c2)sc1N(C)C(=O)OC(C)(C)C ?
Resp: 1

Req: Please answer likewise for Cc1nc(-c2cccnc2)sc1N(C)C(=S)SC(C)(C)C
Resp: 0

---

Test system: Lolium perenne (LOLPE)
ASSAY: Post-emergence herbicidal activity
Format: in vivo
RUN CONDITIONS: post-emergence application, 1000 g/Ha, evaluated after 13 days, scale 0-5; Table 7
Everything with Control of weed species, LOLPE (damage score) lower than 3 is False; everything else, including exactly 3, is True.

Before answering, review these 3 worked examples.
- MOLECULE: "CN(C(=O)OC(C)(C)C)c1sc(-c2cccnc2)nc1F [Compound A32]"
  CLASS LABEL: "False"
- MOLECULE: "Cc1nc(-c2cccnc2)sc1N(C)C(=O)OC(C)(C)C [Compound A1]"
  CLASS LABEL: "True"
- MOLECULE: "CN(C(=O)OC(C)(C)C)c1sc(-c2cncc(F)c2)nc1Br [Compound A51]"
  CLASS LABEL: "False"

Req: Hi team, for Cc1nc(-c2cncc(C(F)(F)F)c2)sc1N(C)C(=O)OC(C)(C)C [Compound A10] , is the recorded Control of weed species, LOLPE (damage score) at or above 3?
Resp: False

---

Test system: Avena fatua (AVEFA)
ASSAY: Post-emergence herbicidal activity
Assay type: in vivo
RUN CONDITIONS: post-emergence application, 1000 g/Ha, evaluated after 13 days, scale 0-5
MEASUREMENT NAME: Control of weed species, AVEFA (damage score)
In your answer, state the number alone without any accompanying words.

Here is how some compounds turned out for Control of weed species, AVEFA (damage score).
- COMPOUND: "Cc1nc(-c2cncc(C(N)=O)c2)sc1N(C)C(=O)OC(C)(C)C [Compound A8]"
  NUMERIC RESULT: 2
- COMPOUND: "Cc1nc(-c2cccnc2)sc1N(C)C(=O)OC(C)C [Compound A20]"
  NUMERIC RESULT: 3
- COMPOUND: "CN(C(=O)OC(C)(C)C)c1sc(-c2cncc(F)c2)nc1Br [Compound A51]"
  NUMERIC RESULT: 4
- COMPOUND: "CN(C(=O)OC(C)(C)C)c1sc(-c2cccnc2)nc1C(F)(F)F [Compound A25]"
  NUMERIC RESULT: 4
- COMPOUND: "CN(C(=O)OC(C)(C)C)c1sc(-c2cccnc2)nc1Cl [Compound A29]"
  NUMERIC RESULT: 4
- COMPOUND: "Cc1nc(-c2cccnc2)sc1N(C)C(=O)Oc1ccc([N+](=O)[O-])cc1 [Compound A61]"
  NUMERIC RESULT: 2
- COMPOUND: "Cc1nc(-c2cc(F)c[n+]([O-])c2)sc1N(C)C(=O)OC(C)(C)C [Compound A62]"
  NUMERIC RESULT: 4
- COMPOUND: "Cc1nc(-c2cncnc2)sc1N(C)C(=O)OC(C)(C)C [Compound A2]"
  NUMERIC RESULT: 5
- COMPOUND: "CSc1cncc(-c2nc(C)c(N(C)C(=O)OC(C)(C)C)s2)c1 [Compound A12]"
  NUMERIC RESULT: 2
- COMPOUND: "CN(C(=O)OC(C)(C)C)c1sc(-c2cncc(F)c2)nc1C(F)(F)F [Compound A24]"
  NUMERIC RESULT: 4

Req: For the record CN(C(=O)OC(C)(C)C)c1sc(-c2cncc(F)c2)nc1I [Compound A52] , what value of Control of weed species, AVEFA (damage score) is listed for Avena fatua (AVEFA)?
Resp: 4

Req: Also, CN(C(=O)OC(C)(C)C)c1sc(-c2cccnc2)nc1F [Compound A32] please.
Resp: 3

Req: Same read-out for CN(C(=O)OC(C)(C)C)c1sc(-c2cccnc2)nc1Br [Compound A30] ?
Resp: 4

Req: Now try Cc1nc(-c2cncc(F)c2)sc1N(C)C(=O)OC(C)(C)C [Compound A3] .
Resp: 4

Req: // repeat for COC(=O)N(C)c1sc(-c2cccnc2)nc1C [Compound A18] and report
Resp: 3

Req: Repeat for the following compound: CN(C(=O)OC(C)(C)C)c1sc(-c2cccnc2)nc1I [Compound A31]
Resp: 5

---

Control of weed species, AVEFA (damage score) for assorted compounds
Test system: Avena fatua (AVEFA)
ASSAY: Post-emergence herbicidal activity
Type: in vivo
RUN CONDITIONS: post-emergence application, 1000 g/Ha, evaluated after 13 days, scale 0-5
# output: bare number, no unit

A selection of reference data follows.
- COMPOUND: "Cc1nc(-c2cncc(C(F)(F)F)c2)sc1N(C)C(=O)OC(C)(C)C [Compound A10]"
  NUMERIC RESULT: 2
- COMPOUND: "Cc1nc(-c2cncc(S(C)(=O)=O)c2)sc1N(C)C(=O)OC(C)(C)C [Compound A9]"
  NUMERIC RESULT: 2
- COMPOUND: "Cc1nc(-c2cncc(C#N)c2)sc1N(C)C(=O)OC(C)(C)C [Compound A7]"
  NUMERIC RESULT: 4
- COMPOUND: "Cc1nc(-c2cncc(O)c2)sc1N(C)C(=O)OC(C)(C)C [Compound A15]"
  NUMERIC RESULT: 2
- COMPOUND: "Cc1nc(-c2cccnc2)sc1N(C)C(=O)NC(C)(C)C [Compound A21]"
  NUMERIC RESULT: 4
- COMPOUND: "Cc1nc(-c2cncc(OC(F)F)c2)sc1N(C)C(=O)OC(C)(C)C [Compound A16]"
  NUMERIC RESULT: 5
- COMPOUND: "Cc1nc(-c2cncc(C=O)c2)sc1N(C)C(=O)OC(C)(C)C [Compound A5]"
  NUMERIC RESULT: 0
- COMPOUND: "CN(C(=O)OC(C)(C)C)c1sc(-c2cncnc2)nc1C(F)(F)F [Compound A26]"
  NUMERIC RESULT: 5
- COMPOUND: "Cc1nc(-c2cccnc2)sc1N(C)C(=O)SC(C)(C)C [Compound A22]"
  NUMERIC RESULT: 2
- COMPOUND: "CCOC(=O)N(C)c1sc(-c2cccnc2)nc1C [Compound A19]"
  NUMERIC RESULT: 3

Req: Form field: reported Control of weed species, AVEFA (damage score) of Cc1nc(-c2cccnc2)sc1N(C)C(=O)NOC(C)(C)C [Compound A45]
Resp: 5

Req: Same thing, different compound: Cc1nc(-c2cncc(OCc3ccccc3)c2)sc1N(C)C(=O)OC(C)(C)C [Compound A14]
Resp: 0

Req: One more compound: Cc1nc(-c2cncc(N(C)C)c2)sc1N(C)C(=O)OC(C)(C)C [Compound A13]
Resp: 0

Req: Moving on to Cc1nc(-c2cncc(F)c2)sc1NC(=O)OC(C)(C)C [Compound A35]
Resp: 1

Req: Another: Cc1nc(-c2cccnc2)sc1N(C)C(=S)SC(C)(C)C [Compound A23]
Resp: 1

Req: Next: COc1cncc(-c2nc(C(F)(F)F)c(N(C)C(=O)OC(C)(C)C)s2)c1 [Compound A28]
Resp: 2

Req: Another compound to check: Cc1nc(-c2cccnc2)sc1N(C)C(=O)OC(C)(C)C [Compound A1]
Resp: 4

Req: # repeat for CN(C(=O)OC(C)(C)C)c1sc(-c2cncc(Cl)c2)nc1C(F)(F)F [Compound A27]
Resp: 4

// data source = patent US11470846B2
